biological target: various kinases (Homo sapiens, UniProt Q9UM73, R1275Q); test: LanthaScreen Eu Kinase Binding Assay, panel of 486 biochemical kinase assays; conditions: ALK R1275Q
Sequence (Q9UM73 19-1620 R1275Q): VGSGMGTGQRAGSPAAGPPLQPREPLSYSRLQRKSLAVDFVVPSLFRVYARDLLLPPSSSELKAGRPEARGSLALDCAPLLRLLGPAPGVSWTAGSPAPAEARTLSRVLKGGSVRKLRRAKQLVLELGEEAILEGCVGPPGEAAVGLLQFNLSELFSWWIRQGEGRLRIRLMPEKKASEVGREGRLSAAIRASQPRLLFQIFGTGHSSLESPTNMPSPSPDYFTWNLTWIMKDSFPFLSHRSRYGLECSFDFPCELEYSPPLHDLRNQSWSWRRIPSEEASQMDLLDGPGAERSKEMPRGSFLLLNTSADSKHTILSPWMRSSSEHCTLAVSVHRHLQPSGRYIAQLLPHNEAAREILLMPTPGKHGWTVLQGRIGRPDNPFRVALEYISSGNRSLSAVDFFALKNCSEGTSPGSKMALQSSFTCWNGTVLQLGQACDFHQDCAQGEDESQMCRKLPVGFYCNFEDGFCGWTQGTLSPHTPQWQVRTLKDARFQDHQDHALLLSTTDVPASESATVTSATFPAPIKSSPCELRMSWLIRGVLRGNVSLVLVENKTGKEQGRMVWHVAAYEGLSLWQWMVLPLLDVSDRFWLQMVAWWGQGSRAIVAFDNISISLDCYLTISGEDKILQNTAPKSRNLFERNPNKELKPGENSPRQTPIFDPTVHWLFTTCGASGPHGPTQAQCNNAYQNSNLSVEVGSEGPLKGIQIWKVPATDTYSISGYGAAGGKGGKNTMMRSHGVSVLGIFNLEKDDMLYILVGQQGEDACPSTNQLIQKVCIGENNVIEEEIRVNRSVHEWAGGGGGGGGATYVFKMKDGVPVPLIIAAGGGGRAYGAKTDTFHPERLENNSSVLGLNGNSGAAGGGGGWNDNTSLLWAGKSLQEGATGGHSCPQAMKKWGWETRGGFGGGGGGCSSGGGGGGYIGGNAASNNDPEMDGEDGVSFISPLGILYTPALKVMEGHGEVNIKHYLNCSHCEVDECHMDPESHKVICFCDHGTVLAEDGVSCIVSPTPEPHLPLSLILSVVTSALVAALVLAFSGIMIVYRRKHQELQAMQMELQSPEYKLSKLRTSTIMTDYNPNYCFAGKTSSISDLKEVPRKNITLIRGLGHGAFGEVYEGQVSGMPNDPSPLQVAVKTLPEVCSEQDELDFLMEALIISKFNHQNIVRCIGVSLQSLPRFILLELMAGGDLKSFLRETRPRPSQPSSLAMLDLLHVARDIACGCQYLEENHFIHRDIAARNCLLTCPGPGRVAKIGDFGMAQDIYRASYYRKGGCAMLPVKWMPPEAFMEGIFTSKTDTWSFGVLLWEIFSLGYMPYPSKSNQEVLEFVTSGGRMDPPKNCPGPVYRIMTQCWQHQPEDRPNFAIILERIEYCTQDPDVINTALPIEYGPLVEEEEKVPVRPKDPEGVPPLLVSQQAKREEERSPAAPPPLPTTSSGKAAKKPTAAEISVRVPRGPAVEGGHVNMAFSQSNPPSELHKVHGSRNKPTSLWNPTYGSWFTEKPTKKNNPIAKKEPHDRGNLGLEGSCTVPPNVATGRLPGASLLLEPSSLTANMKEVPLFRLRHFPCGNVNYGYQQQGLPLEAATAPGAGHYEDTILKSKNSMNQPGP
measurement_label: IC50 (nM)
# unit: nM | format: bare number

Inquiry: Please give the measured IC50 for this compound: COc1ccc2c(c1)[C@]1(C[C@H]1c1ccc3c(/C=C/c4ccc(CN5C[C@@H](C)O[C@@H](C)C5)cc4)n[nH]c3c1)C(=O)N2 [CFI-400945]
Reply text: 444
